tested system: SauCas9 (Staphylococcus aureus, UniProt J7RUA5)
Sequence (J7RUA5 whole entry): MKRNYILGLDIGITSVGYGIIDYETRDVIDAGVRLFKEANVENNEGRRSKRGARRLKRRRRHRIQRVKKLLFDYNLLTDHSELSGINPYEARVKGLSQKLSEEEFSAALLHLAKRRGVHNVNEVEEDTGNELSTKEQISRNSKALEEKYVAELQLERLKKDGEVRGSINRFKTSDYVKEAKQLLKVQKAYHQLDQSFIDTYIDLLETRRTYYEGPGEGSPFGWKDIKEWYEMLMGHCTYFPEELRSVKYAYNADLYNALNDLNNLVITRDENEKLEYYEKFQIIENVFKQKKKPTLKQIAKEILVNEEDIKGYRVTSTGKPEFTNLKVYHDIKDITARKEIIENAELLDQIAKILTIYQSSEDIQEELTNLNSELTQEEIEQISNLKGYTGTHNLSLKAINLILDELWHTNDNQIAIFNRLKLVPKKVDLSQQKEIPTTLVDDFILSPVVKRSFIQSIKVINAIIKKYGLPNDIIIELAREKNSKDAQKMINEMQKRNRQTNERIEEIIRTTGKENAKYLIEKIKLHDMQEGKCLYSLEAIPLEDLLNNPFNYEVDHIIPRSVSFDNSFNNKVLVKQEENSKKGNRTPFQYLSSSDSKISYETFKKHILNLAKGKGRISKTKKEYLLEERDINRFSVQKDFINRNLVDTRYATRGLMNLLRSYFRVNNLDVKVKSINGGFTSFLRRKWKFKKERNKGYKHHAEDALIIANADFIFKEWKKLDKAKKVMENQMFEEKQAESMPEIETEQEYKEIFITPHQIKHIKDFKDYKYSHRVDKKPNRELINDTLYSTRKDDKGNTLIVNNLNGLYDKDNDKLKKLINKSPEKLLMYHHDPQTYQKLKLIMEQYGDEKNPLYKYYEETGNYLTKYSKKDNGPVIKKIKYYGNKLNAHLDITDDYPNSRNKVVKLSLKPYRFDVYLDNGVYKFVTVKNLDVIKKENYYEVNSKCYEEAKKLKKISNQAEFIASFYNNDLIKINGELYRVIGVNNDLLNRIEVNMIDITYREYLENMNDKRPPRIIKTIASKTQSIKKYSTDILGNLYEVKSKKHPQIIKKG
assay method text: In vitro purified enzyme activity assay for SauCas9
Assay type: biochemical
assay context: read-out: IC50, in vitro purified enzyme assay; Sau Cas9; supercoil (circular) plasmid substrate
pIC50: −log10 of the molar value.
I'd appreciate it if you could supply pIC50 values for the items below.

Task: # get_value(readout='pIC50', item= `CN[C@H]1C(=O)N[C@@H]2Cc3ccc(cc3)Oc3cc4cc(c3O[C@@H]3O[C@H](C(=O)O)[C@@H](O)[C@H](O)[C@H]3NC(=O)CCCCCCCCC(C)C)Oc3ccc(cc3Cl)[C@@H](O)[C@@H]3NC(=O)[C@H](NC(=O)[C@@H]4NC(=O)[C@@H](NC2=O)c2cc(cc(O)c2Cl)Oc2cc1ccc2O)c1ccc(O)c(c1)-c1c(O[C@H]2O[C@H](CO)[C@@H](O)[C@H](O)[C@@H]2O)cc(O)cc1[C@@H](C(=O)NCCCN(C)C)NC3=O` )
Result: 4.60 to 4.90

Task: Same thing, different compound: `Cc1ccc(S(=O)(=O)N2CC[C@@H]3[C@H](CO)Nc4ccc(-c5ccccc5F)cc4[C@@H]32)cc1`
Result: ~4.30
